tested on: HOP-92 NSCLC; assay: NCI tumour cell line growth inhibition, 48 h
The reader will find reported TGI values listed item by item below.
ASSAY METRIC: TGI (µM)

> print(dat)
                                    compound  censoring.operator  value
 1                Cc1ccccc1C(=O)c1cc(O)ccc1O                   >    100
 2  COc1ccc(-c2ccc(=O)oc2C#Cc2cc(OC)c(OC)c(OC)c2)cc1O                   =   9.87
 3            O=[N+]([O-])c1ccc2occ3c2c1CCC3                   >    100
 4  CC(C)c1cc2c(c(O)c1O)[C@@]1(C(=O)O)CCCC(C)(C)[C@@H]1CC2                   =   20.8
 5  Cc1nc(C)c(C(=O)NNC(=O)C[N+](C)(C)C)cc1C(=O)NNC(=O)C[N+](C)(C)C                   >    100
 6  CC1(C)[C@@H]2CC[C@@]1(C)CN(CCC[N+](C)(C)C)C2                   >    100
 7                NC(N)=N/N=C/c1c(Cl)cccc1Cl                   =   32.7
 8  CC(C)(/C=C(\C#N)C(=O)N1CCC[C@@H](n2nc(-c3ccc(Oc4ccccc4)cc3F)c3c(N)ncnc32)C1)N1CCN(C2COC2)CC1                   =   11.1
 9  CC1=CCC([C@@](C)(O)CCCC(C)(C)N=C=S)CC1 (stereo not given in full)                   =   33.1
10      COC(=O)/C(C#N)=C1\N=NNN1c1ccc(OC)cc1                   >    100
